- system_name: HLA-DR DRB1*0401 (human)
- procedure_details: radioligand binding
pIC50: −log10 of the molar value.
measurement_label: pIC50

NPILLWQPIPVHTVPLSEDQ [PAP_(133-152)] | 7.41
KSEEFQKRLHPYKDFIATLG [PAP_(173-192)] | 6.53
